test: soluble on expression in E. coli; label from the status in PepcDB or PDB records
QUANTITY: soluble on expression in E. coli

Below are worked cases with known answers.
| SEQUENCE_ENTRY | soluble on expression in E. coli |
| --- | --- |
| MPTNTFFHLPEEKQQRLLDAAQIEFSRHSLQEASIANIVKLAGIPRGSFYQYFENKEDLYFYYFATLRKNSERDLEKQIIAENGDLIEAMDVYFSKMIVEVLTGENASFYRNLFVNMDYRASRRVTDNLATGEEEKNRKQHCHKHRGRKGHAAYAEHLYQIIDHSKLTIETPKEFTWFMQTAMHAVFSTIVDGYRQQRENTAYDSTEAVKQLKMKLSWLKNGAYK | not soluble |
| DGRRMVQGLLTASLLTSIGGDLEVLASRMDLQFQRPVYTGETLVCELTVVSADPHTDGGVALVGDVAVRRVNRDDNSGQADTAAP | not soluble |
| MIRSATKEDGQAIARLVLVILKDMELPILEEVSEEQMIDLLAEATAYPTYRYGYQRILVYEHAGEVAGIAVGYPAEDEKIIDEPLREVFKKHGLAEDVRLFIEEETLPNEWYLDTISVDERFRGMGIGSKLLDALPEVAKASGKQALGLNVDFDNPGARKLYASKGFKDVTTMTISGHLYNHMQKEV | not soluble |
| SPRPPDDPGFGPHQRLEKLDSLLSDYDILSLSNIQQHSVRKRDLQTSTHVETLLTFSALKRHFKLYLTSSTERFSQNFKVVVVDGKNESEYTVKWQDFFTGHVVGEPDSRVLAHIRDDDVIIRINTDGAEYNIEPLWRFVNDTKDKRMLVYKSEDIKNVSRLQSPKVCGYLKVDNEELLPKGLVDREPPEGKT | soluble |
| MTEEMNQIDVQVPEVGDVVKGIVTKVEDKHVDVEIINVKQSGIIPISELSSLHVEKASDVVKVDDELDLKVTKVEDDALILSKRAVDADRAWEDLEKKFETKEVFEAEVKDVVKGGLVVDIGVRGFIPASLVEAHFVEDFTDYKGKTLSLLVVELDRDKNRVILSHRAVVESEQANKKQELLQSLEVGSVLDGKVQRLTDFGAFVDIGGIDGLVHISQLSHSHVEKPSDVVEEGQEVKVKVLSVDRDNERISLSIKDTLPGPWNQIGEKVKPGDVLEGTVQRLVSFGAFVEILPGVEGLVHISQISNKHIGTPHEVLEEGQTVKVKVLDVNENEERISLSMRELEETPKADQEDYRQYQAKEETSTGFQLGDLIGDKLNKLKLEHHHHHH | soluble |

# input for lookup
What measured soluble on expression in E. coli goes with MGSDKIHHHHHHMPQITIIVPVYNAERTLERCVRSIQAQTVVNWELLLIDDGSEDYSSKLCDEYAIQDSRIRVFHQVNGGASSARNVGLEYTKGEWVVFCDSDDWVDSNWLELFKNQIDNGTELIVQGFIPHGNLWQSRTGINFHGNVKTGILKLQEENILGFMCTKMYKREIIEQCGLRFDTELVLREDELFMLQYAEYISTIQCMEEGAYHYDMPDFSTKYGNIDLFNMFLKIYVVLKRIFSGEDNLLLQNYENDLTQSLFHSFVMRHDDRCKKLENYRKEVGKRVLGVKSLSQFSKYILAYVPSFQVAYLLLEAKAKIVKSMQ ?
not soluble

----------
test: soluble on expression in E. coli; label from the status in PepcDB or PDB records
QUANTITY: soluble on expression in E. coli

| SEQUENCE_ENTRY | RESULT_VALUE |
| --- | --- |
| MTNSSNLIDSLEVYVLNNPDEVKPHWVSHFIVPTANELLIKIKNKDGHSGFGLATSYTDIAPIIKPFSNGLQDLIIGEDPFCPEKIYEKIFKLTDTRLSSEKGWSREALIRISAALDIACWDLIGKASNIPLYKLFGGFRNKIPVYVTCAYYRDGKDEKELRDEIKKLVNIGHKSFKVKVGGLSIKEDVKRLEIIRDEIGDQKGLMIDVNRAWDLKTAIEGVKEFEKFKPTWIEEPVRWEDDRRTLKLLSKQTKIPLSGGESEVTIYGCRSMIEEDAIQILQFDCTMFGGFTNGKKLSALCELNHIDVAPHHDCYIHAPLVASTPAGRIVESFDDERDPLQAQLFENPHKMSEGWIHLNKKPGLGLEISDAALKKFGKLVYKNK | soluble |
| MGSDKIHHHHHHMVLNINSFYKNCRGEFMRAVFIYHKNNQRMEKFYKNLLNEPDFCRICDDCYNCRGNWTFKNNVKNIVIEEVYEEFVDNPYDYLPELPEGDICIAQLHEDLLYELPLLLKEKGYKALIVPSETPHDLSLALRRDLKRVCSNYNIEFENPKPFCSLEKKEGNEYINKFIDYFKIGKPELEIEVENGLIKDVKVKISAPCGETYYIAKRLKGKAIDDLKEEIANAHHNYPCLASMEMDKELGDTILHKAGYIAFEVVEKALKK | not soluble |
| MLELVQKGITPEDAITAGKKARKYFELTYYVMPGLGGRERSEQHAVNTARVINKAQPTFVRLRTLTVIEGTPIEKLVGKEITLLGPVEQLEEVRRLVEEIKVETLLLSDHVSNYLFTRSGPIFFGVSGKLPDEKEQMLEQVDDAIKTVKLLEESGERVFNSNDMYRMGLIGL | not soluble |
| ENGRLVELPDNDKSDALQFLATILEAVPSIPAGSNIVEIVLEHEKNSNTSLGFGWACPHARVNFDGDLCCAIGWSPAGIDYGIAGEPLVRLVVMFFVPENQRNTYLKEVSTLARVLKSNPEFQNLEPIGDLDQVRNTLLDMTHQAMSE | not soluble |
| MFSDTDISMMENALRLAALGRFSTSPNPRVGCVIAHGSQIVGQGFHVKAGEPHAEVHALRQAGEMAQGATAFVTLEPCSHYGRTPPCAEALVRAGVSRVVAAMRDPNPLVAGKGLALLEAAGIKTECGLLEHQARELNRGFLSRIERRRPFVRLKCAVSLDGKTALSDGSSFWITGEDARADVQVLRAESCAVLTGIGTVLADNPRLNVRAFPTLRQPARIVLDSRLRLPPNSHLVTDGQSPTYIATLERNEDRLHPYREHAHVRILMPSETADSKIDLHHLMRLLADEGFGEIMVEAGSELTSAFLAENLADEIVLYRSPKILGSGKDLFSLLENRAALSAPPLWTPVSSEILGHNIKTVFRKNGNAF | soluble |
| GSHMKVDITIKIQRDGQEIEIDIRVSTGKELERALQELEKALARAGARNVQITISAENDEQAKELLELIARLLQKLGYKDINVRVNGTEVKIEVRV | soluble |

What soluble on expression in E. coli value was documented for this sequence, MIFYFSGTGNSKWIANQLSKEQQEDLFFIPDAWKNDTWEFSLREDEKIGFVFPVYSWAPPVIVQEFIRKLVLKGYQQQYLFFVCSCGDDTGLTRQVMEKALAARGWRCNAGFSVIMPNNYVLFLGFDVDSKELEKKKLAEAVPALEKVSRLITGRETVFACKEGSLPFIKTRIINPLFVRYQMSPKPFHATSECIGCKRCEKSCPVGNITMKERRPVWGKNCTACLACYHVCPQHAVQYGKKTKGKGHYFNPDSAYLEHHHHHH ?
soluble

Please do the same for MDDQIKQIAERLRGLRDVLELTAEDIARDCEISAEEYRLAETGDYDISVSMLQKIARKYGIALDALMFGEEPKMSSYFLTRAGKGTSIERTKAYKYQSLAAGFMNRNADPFIVTVEPKPDIEPIHYNSHSGQEFNLVLEGRMMISIDGKDLILNEGDSLYFNSKLPHGMKALDGKTVRFLAVIM as well.
not soluble

Try the sequence MIKDYLIETMNQDEVNLAITWAAQEGWNPGIHDATCFYQTDPHGFFAGKLNGKTIAIGSAVIYDDFFAFCGFYIVDKSYRDQGYGLELTKARLAYIGNRNAGIDGVINMLDKYARIGYQLAHNNARYCLNKTIKPISSEPHIVPLNQIDFSQLSSYDRLHFPAPRPQFLKCWINQPQSLALAYLIDGQIKGYGVIRTCHKGFKIGPLFAGTPEIAHQLFSNLVPYAKGQLIFLDIPENNPLAIELVSQYQMKKVFATARMYLKGEPPVKKESIYGITTFELG
not soluble

Ok, now MSLQAKIKNKRVLVKFSGEALAGDNQFGIDIHVLDHIAKEIKSLVENDIEVGIVIGGGNIIRGVSAAQGGIIRRTSGDYMGMLATVINAVAMQEALEHIGLDTRVQSAIEIKEICESYIYRKAIRHLEKGRVVIFGAGTGNPFFTTDTAATLRAIEIGSDLIIKATKVDGIYDKDPNKFKDAKKLDTLSYNDALIGDIEVMDDTAISLAKDNKLPIVVCNMFKKGNLLQVIKHQQGVFSMVKEGHHHHHH
soluble

Consider next the sequence MSHYGGNPRGNSSHQFGRKDFQQSDSKHIPKITGQPLPNEVQIPFDNMIYETRNPPKFEKQAKFISEYCINYDRKLQLGRMRAKKFHDKLPPNNLSLDLGKGFETFDPKEGDEKIIMLLEWINQMAPEGGRLKKVIHEADVVCWRGLITKICSTIYNKEEGWRIDAIKRKGVIFLCEEKTEQAKNRDLNQTDLDKRMSYWGHKFEQYVTLDDDAEQPDTSSPVTTKEEYAVVFRNDLQTDQRLNPEKRSIGIFYSGEVDCLDRHGNMLELKTQKGELGHGFYKYSKSFKWWLQSSLVNVDHIIVGLRTQEGHVKSLTSLRTREIPQRASWNFRAGFEFLSTIFTYILNCLEKDGDACVIEYRSEMGIHKGIQMRRVPVDEFDFVPNEFLEKFC in the same way.
not soluble

What do you have for SNAKIIGYARVSFNAQKDDLERQIQLIKSYAEENGWDIQILKDIGSGLNEKRKNYKKLLKMVMNRKVEKVIIAYPDRLTRFGFETLKEFFKSYGTEIVIINKKHKTPQEELVEDLITIVSHFAGKLYGMHSHKYKKLTKTVKEIVREEDAKEKE ?
soluble
